# System: HCC1954
# protocol: Cell proliferation MTT assay
# Assay type: cell-based
# cond: HCC1954, 7 days, read-out: 7 day IC50
recorded.endpoint: pIC50
Would you please state pIC50, meaning minus log10 of the concentration in mol/L, as a bare number?

Which pIC50 reading was recorded for the compound CN(C)C/C=C/C(=O)Nc1ccc(C(=O)Nc2cccc(Nc3ncc(Cl)c(-c4c[nH]c5ccccc45)n3)c2)cc1 [THZ1] ?
7.44

----------
# Tested on: MCF7
# protocol: Cell proliferation MTT assay
# Assay type: cell-based
# cond: MCF7, 7 days, read-out: 7 day IC50
recorded.endpoint: IC50 (µM)
Note: unit µM is implicit; provide only the numeric part.

Consider the molecule shown here: CN(C)C/C=C/C(=O)Nc1ccc(C(=O)Nc2cccc(Nc3ncc(Cl)c(-c4c[nH]c5ccccc45)n3)c2)cc1 What is its recorded IC50?
0.059

Would you kindly share the measured IC50 for CC(C)c1cnn2c(NCc3ccccc3)cc(NCCCCCCN)nc12 ?
32.1
